- TARGET: HLA-B*35:01
- ASSAY EXPLANATION: IEDB peptide-MHC binding, purified MHC/direct/fluorescence; filed as Kd, often an IC50 or EC50 that approximates it; bounds were set here for any values at or beyond the usual limits of such assays
- CONDITION NOTES: source organism: Burkholderia mallei ATCC 23344
pKd: −log10 of the molar value.

{"RESIDUES": "MMYASWGVH", "pKd": 5.57}

----------
- TARGET: HLA-B*57:01
- ASSAY EXPLANATION: IEDB peptide-MHC binding, purified MHC/competitive/fluorescence; filed as Kd, often an IC50 or EC50 that approximates it; bounds were set here for any values at or beyond the usual limits of such assays
- CONDITION NOTES: source organism: Orthohantavirus andesense
Some sequences, each annotated with its measured Kd.

{"RESIDUES": "KPKALSEAF", "Kd": "≥ 20 µM"}
{"RESIDUES": "LEEDIQHFL", "Kd": "≥ 20 µM"}
